Hello, the source for this data is patent US9255295B2, in case you need it.

List of PDZK1iP1 expression values.
- System: genes specific for sensitization (BRAK, CTSS, DAPK2, FABP4, HSP27, IL18, HSP90, IL1R2, TPSAB1, CXCR1, DEFB1, DHFR, EHF, IVL, KRT4, MELANA, NGAL, PDZK1IP1, PI3 …)
- assay.text: Expression of the other (non-ARE) sensitization-specific genes in EPISKIN reconstructed skin (quantitative RT-PCR)
- Type: cell-based, human
- test.parameters: 50%, compared to the control
# output: bare number, no unit

Use these answered entries as a reference point.
Documented PDZK1iP1 expression of CC(O)C(=O)O (stereo not shown) [Lactic acid (cys pos), Lactic acid] : 1.0

Documented PDZK1iP1 expression of O=CC=O [Glyoxal] : 1.0

Documented PDZK1iP1 expression of C=CCc1ccc(O)c(OC)c1 [Eugenol] : 1.7

--- query ---
Documented PDZK1iP1 expression of CC=Cc1ccc(O)c(OC)c1 [Isoeugenol] : 1.1

---

- Test system: genes specific for sensitization (BRAK, CTSS, DAPK2, FABP4, HSP27, IL18, HSP90, IL1R2, TPSAB1, CXCR1, DEFB1, DHFR, EHF, IVL, KRT4, MELANA, NGAL, PDZK1IP1, PI3 …)
- assay.text: Expression of the other (non-ARE) sensitization-specific genes in EPISKIN reconstructed skin (quantitative RT-PCR)
- Type: cell-based, human
- test.parameters: 50%, compared to the control
measured.attribute: DHFR expression
# output: bare number, no unit

Documented DHFR expression of O=CC=O : 0.9

Documented DHFR expression of C=CCc1ccc(O)c(OC)c1 : 0.6

Documented DHFR expression of CC=Cc1ccc(O)c(OC)c1 : 0.9

---
Documented DHFR expression of CC(O)C(=O)O (stereo not shown) : 0.9

---

- Tested on: genes specific for sensitization (BRAK, CTSS, DAPK2, FABP4, HSP27, IL18, HSP90, IL1R2, TPSAB1, CXCR1, DEFB1, DHFR, EHF, IVL, KRT4, MELANA, NGAL, PDZK1IP1, PI3 …)
- assay.text: Expression of the other (non-ARE) sensitization-specific genes in EPISKIN reconstructed skin (quantitative RT-PCR)
- Format: cell-based, human
- test.parameters: 50%
List of TOTAL SENS (number of genes) values.
# output: bare number, no unit

Use these answered entries as a reference point.
Documented TOTAL SENS (number of genes) of CC(O)C(=O)O (stereo not shown) [Lactic acid (cys pos), Lactic acid] : 1

Documented TOTAL SENS (number of genes) of C=CCc1ccc(O)c(OC)c1 [Eugenol] : 15

Documented TOTAL SENS (number of genes) of CC=Cc1ccc(O)c(OC)c1 [Isoeugenol] : 13

--- query ---
Documented TOTAL SENS (number of genes) of O=CC=O [Glyoxal] : 8

---

List of PDZK1iP1 expression values.
- System: genes specific for sensitization (BRAK, CTSS, DAPK2, FABP4, HSP27, IL18, HSP90, IL1R2, TPSAB1, CXCR1, DEFB1, DHFR, EHF, IVL, KRT4, MELANA, NGAL, PDZK1IP1, PI3 …)
- assay.text: Expression of the other (non-ARE) sensitization-specific genes in EPISKIN reconstructed skin (quantitative RT-PCR)
- Format: cell-based, human
- test.parameters: 10%, compared to the control
# output: bare number, no unit

Documented PDZK1iP1 expression of CC(O)C(=O)O (stereo not shown) : 1.0

Documented PDZK1iP1 expression of CC=Cc1ccc(O)c(OC)c1 : 1.0

Documented PDZK1iP1 expression of O=CC=O : 1.4

Documented PDZK1iP1 expression of C=CCc1ccc(O)c(OC)c1 : 0.9
